- assayTarget: T1, human TIGIT ECD-his (fusion protein of extracellular domain of human TIGIT and His-tag) (human)
- T1 construct: entry includes the signal peptide, limits not readable here
- T1 chain: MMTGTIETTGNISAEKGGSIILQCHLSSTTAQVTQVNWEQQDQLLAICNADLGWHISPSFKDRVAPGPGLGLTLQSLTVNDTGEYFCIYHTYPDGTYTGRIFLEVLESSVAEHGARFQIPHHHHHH
- experimentalDetails: BIAcore kinetics
testReadout: kon (M⁻¹ s⁻¹)
Answers are plain numbers, in M⁻¹ s⁻¹.

{"binder": "TIGIT-F2-006 (antibody, V domains shown, mouse hybridoma antibody; variable domains as printed for TIGIT-CHI-006; tie rests on the number 006 only; also called mouse antibody TIGIT-006) VH: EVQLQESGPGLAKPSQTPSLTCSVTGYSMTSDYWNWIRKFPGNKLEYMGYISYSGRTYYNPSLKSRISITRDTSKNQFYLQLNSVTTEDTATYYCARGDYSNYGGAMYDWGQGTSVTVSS VL: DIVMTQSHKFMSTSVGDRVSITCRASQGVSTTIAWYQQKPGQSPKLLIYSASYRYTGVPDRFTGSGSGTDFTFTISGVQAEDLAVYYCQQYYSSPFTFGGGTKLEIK", "testReadout": "kon", "reportedResult": 800000}
{"binder": "TIGIT-F2-005 (antibody, V domains shown, mouse hybridoma antibody; variable domains as printed for TIGIT-CHI-005; tie rests on the number 005 only; also called mouse antibody TIGIT-005) VH: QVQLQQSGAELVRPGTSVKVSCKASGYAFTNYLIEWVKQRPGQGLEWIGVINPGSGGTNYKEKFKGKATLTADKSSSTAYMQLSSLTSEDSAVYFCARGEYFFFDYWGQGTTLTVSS VL: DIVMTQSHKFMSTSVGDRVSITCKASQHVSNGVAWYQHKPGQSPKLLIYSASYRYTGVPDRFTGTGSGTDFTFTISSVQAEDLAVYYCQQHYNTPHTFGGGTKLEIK", "testReadout": "kon", "reportedResult": "1.34e+06"}
{"binder": "TIGIT-F2-002 (antibody, V domains shown, mouse hybridoma antibody; variable domains are those printed for the chimeric TIGIT-CHI-002 built from the mouse antibody; tie rests on the number 002 only; also called mouse antibody TIGIT-002) VH: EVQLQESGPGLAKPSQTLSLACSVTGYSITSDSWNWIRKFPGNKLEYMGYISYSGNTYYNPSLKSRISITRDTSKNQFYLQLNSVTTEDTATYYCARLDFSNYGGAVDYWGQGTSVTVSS VL: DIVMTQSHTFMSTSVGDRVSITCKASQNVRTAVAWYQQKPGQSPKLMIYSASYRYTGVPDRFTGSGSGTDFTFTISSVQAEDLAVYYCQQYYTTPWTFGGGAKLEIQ", "testReadout": "kon", "reportedResult": "1.7e+06"}

Now consider a different binder.
IN: I would be grateful if you could share the reported kon for TIGIT-F5-070 (antibody, V domains shown, mouse hybridoma antibody; variable domains as printed for TIGIT-CHI-070; tie rests on the number 070 only; also called mouse antibody TIGIT-070) VH: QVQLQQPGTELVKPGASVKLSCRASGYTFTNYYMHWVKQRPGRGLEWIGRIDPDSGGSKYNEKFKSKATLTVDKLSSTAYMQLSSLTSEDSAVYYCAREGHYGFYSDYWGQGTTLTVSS VL: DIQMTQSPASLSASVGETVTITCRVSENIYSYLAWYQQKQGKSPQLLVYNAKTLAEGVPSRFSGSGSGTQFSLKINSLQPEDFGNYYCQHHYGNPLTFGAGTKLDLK .
OUT: 755000
